- ASSAY_PROTOCOL: Metabolic stability in human microsomes assessed as intrinsic clearance at 100 uM incubated for 60 mins under shaking condition in presence of NADPH by LC-MS/MS analysis
- Assay type: ADME, Microsome
- TEST_PARAMETERS: read-out: CLH
MEASURE: microsomal CLint at 100 µM (µL/min/mg)

>>> measured("Fc1ccc(CNc2nc(Nc3cc(C4CC4)[nH]n3)c3ccccc3n2)c(F)c1")
53.7
>>> measured("Cc1cc(Nc2nc(NCc3ccc(F)cc3F)nc3cc(C(F)(F)F)ccc23)n[nH]1")
27.2
>>> measured("Cc1ccc2c(Nc3cc(C)[nH]n3)nc(NCc3ccc(F)cc3F)nc2c1")
54.3
>>> measured("Cc1cc(Nc2nc(NCc3ccc(F)cc3F)nc3cc(Cl)ccc23)n[nH]1")
43.5

* * *

Quick reference for remaining at 1 h, 100 µM among some compounds
- ASSAY_PROTOCOL: Metabolic stability in human liver microsomes assessed as compound remaining at 100 uM incubated for 60 mins under shaking condition in presence of NADPH by LC-MS/MS analysis
- Format: ADME, Microsome
- TEST_PARAMETERS: read-out: Stability
MEASURE: remaining at 1 h, 100 µM (%)

>>> measured("Fc1ccc(CNc2nc(Nc3cc(C4CC4)[nH]n3)c3ccccc3n2)c(F)c1")
19.3
>>> measured("Cc1cc(Nc2nc(NCc3ccc(F)cc3F)nc3cc(Cl)ccc23)n[nH]1")
28.1
>>> measured("Cc1ccc2c(Nc3cc(C)[nH]n3)nc(NCc3ccc(F)cc3F)nc2c1")
20.2
>>> measured("Cc1cc(Nc2nc(NCc3ccc(F)cc3F)nc3cc(C(F)(F)F)ccc23)n[nH]1")
43.4

* * *

- TARGET: High affinity nerve growth factor receptor (Homo sapiens)
Simple rule here: IC50 less than 0.04 µM is criterion met, otherwise criterion not met.

>>> assigned_class("Cc1cc(Nc2nc(NCc3ccc(F)cc3F)nc3ccc(F)cc23)n[nH]1")
"criterion not met"
>>> assigned_class("Cc1cc(Nc2nc(N3CCOCC3)nc3ccc(Cl)cc23)n[nH]1")
"criterion not met"
>>> assigned_class("Cc1cc(Nc2nc(NCc3ccc(F)cc3)nc3ccccc23)n[nH]1")
"criterion met"
>>> assigned_class("Cc1cc(Nc2nc(NCc3ccc(Cl)cc3)nc3ccccc23)n[nH]1")
"criterion not met"
>>> assigned_class("Fc1ccc(CNc2nc(Nc3cc(C4CC4)[nH]n3)c3ccc(C(F)(F)F)cc3n2)c(F)c1")
"criterion met"
>>> assigned_class("Cc1cc(Nc2nc(NCc3ccc(Br)cc3)nc3ccccc23)n[nH]1")
"criterion not met"

* * *

# half-life at 100 µM per entry
- ASSAY_PROTOCOL: Metabolic stability in human liver microsomes assessed as half life at 100 uM incubated for 60 mins under shaking condition in presence of NADPH by LC-MS/MS analysis
- Format: ADME, Microsome
MEASURE: half-life at 100 µM (min)

>>> measured("Cc1ccc2c(Nc3cc(C)[nH]n3)nc(NCc3ccc(F)cc3F)nc2c1")
25.5
>>> measured("Fc1ccc(CNc2nc(Nc3cc(C4CC4)[nH]n3)c3ccccc3n2)c(F)c1")
25.8
>>> measured("Cc1cc(Nc2nc(NCc3ccc(F)cc3F)nc3cc(Cl)ccc23)n[nH]1")
31.9
>>> measured("Cc1cc(Nc2nc(NCc3ccc(F)cc3F)nc3cc(C(F)(F)F)ccc23)n[nH]1")
50.9

* * *

- TARGET: High affinity nerve growth factor receptor (Homo sapiens, UniProt P04629, G595R)
- Sequence (P04629 33-796 G595R limits assumed): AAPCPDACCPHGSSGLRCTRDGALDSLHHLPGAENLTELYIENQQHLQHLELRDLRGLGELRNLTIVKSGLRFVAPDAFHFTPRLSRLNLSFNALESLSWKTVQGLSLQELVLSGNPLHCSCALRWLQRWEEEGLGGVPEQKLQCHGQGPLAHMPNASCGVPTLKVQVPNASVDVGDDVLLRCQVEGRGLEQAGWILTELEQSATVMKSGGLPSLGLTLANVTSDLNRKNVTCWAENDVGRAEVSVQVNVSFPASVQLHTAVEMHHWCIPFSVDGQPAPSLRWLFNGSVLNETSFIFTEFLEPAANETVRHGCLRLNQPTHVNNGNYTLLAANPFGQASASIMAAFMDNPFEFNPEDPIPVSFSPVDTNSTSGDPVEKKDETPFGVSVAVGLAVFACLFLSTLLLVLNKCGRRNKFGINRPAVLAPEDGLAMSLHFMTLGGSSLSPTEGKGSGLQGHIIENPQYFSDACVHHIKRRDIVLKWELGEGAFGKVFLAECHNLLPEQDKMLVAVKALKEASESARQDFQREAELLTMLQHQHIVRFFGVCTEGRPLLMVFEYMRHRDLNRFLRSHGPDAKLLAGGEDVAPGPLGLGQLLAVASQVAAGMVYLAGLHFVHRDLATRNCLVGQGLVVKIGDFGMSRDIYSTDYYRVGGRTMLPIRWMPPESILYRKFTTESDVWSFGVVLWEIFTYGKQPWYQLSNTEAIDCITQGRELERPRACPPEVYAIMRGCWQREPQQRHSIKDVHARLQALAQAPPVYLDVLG
- ASSAY_PROTOCOL: Inhibition of TRKA G595R mutant (unknown origin)
pIC50: −log10 of the molar value.
MEASURE: pIC50

>>> measured("Cc1cc(C(=O)NC(C)(C)C)cc(C#Cc2ccc3c4c(oc3c2)C(C)(C)c2cc(NS(C)(=O)=O)ccc2C4=O)n1")
5.52

* * *

- Tested on: KM12
- ASSAY_PROTOCOL: Antiproliferative activity against human KM12 cells assessed as inhibition of cell growth incubated for 72 hrs by CCK8 assay
- Type: functional, cell-based
- TEST_PARAMETERS: KM12, 72 h
IC50 overview
MEASURE: IC50 (µM)

>>> measured("O=C(Nc1cnn2ccc(N3CCC[C@H]3c3cc(F)ccc3F)nc12)N1CC[C@@H](O)C1")
0.0071
>>> measured("C[C@@H]1CCc2ncc(F)cc2[C@H]2CCCN2c2ccn3ncc(c3n2)C(=O)N1 [SELITRECTINIB]")
0.0028
>>> measured("Fc1ccc(CNc2nc(Nc3cc(C4CC4)[nH]n3)c3ccc(C(F)(F)F)cc3n2)c(F)c1")
0.028
>>> measured("CC(C)Oc1cc(Nc2nc(N[C@@H](C)c3ccc(F)cn3)ncc2Cl)n[nH]1")
0.021
